- systemTested: CRD1-3
- Sequence (chain, as listed by the source limits assumed): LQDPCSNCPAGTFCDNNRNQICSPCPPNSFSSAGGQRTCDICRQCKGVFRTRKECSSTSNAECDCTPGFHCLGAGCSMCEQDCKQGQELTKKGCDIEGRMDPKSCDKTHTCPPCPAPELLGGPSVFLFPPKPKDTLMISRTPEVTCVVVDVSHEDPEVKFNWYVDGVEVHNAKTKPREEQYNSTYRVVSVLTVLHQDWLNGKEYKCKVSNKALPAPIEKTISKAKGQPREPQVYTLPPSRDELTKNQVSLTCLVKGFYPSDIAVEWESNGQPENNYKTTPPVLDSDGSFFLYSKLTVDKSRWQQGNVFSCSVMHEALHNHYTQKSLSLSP
- assayInfo: ELISA, coated CD137-Fc protein 2 µg/mL, antibody 10 or 5 µg/mL; absorbance 620 nm divided by that of the uncoated well
readoutType: Ratio with respect to Non-Coating
Reply briefly: the number, and no unit.

Consider the following illustrative entries.
Prompt line: Data request, read-out Ratio with respect to Non-Coating, for R13 (antibody, V domains shown) VH: QVQLVESGGGLVQPGGSLRLSCAASGFTFSYYDIQWVRQAPGKGLEWVSSISPSGQSTYYRREVKGRFTISRDNSKNTLYLQMNSLRAEDTAVYYCARRTGREYGGGWYFDYWGQGTLVTVSS VL: DIQMTQSPSSLSASVGDRVTITCRASQSISSYLNWYQQKPGKAPKLLIYAASSLQSGVPSRFSGSGSGTDFTLTISSLQPEDFATYYCQQFSRFPLTFGGGTKVEIK
Response line: 0.7

Prompt line: Record: R1 (antibody, V domains shown) VH: EVQLVQSGAEVKKPGASVKVSCKASGYTFTSYYTHWVRQAPGQGLEWMGIINPSGGSTSYAQKFQGRVTMTRDTSTSTVYMELSSLRSEDTAVYYCARGAPEYSSSSDYWGQGTMVTVSS VL: QSALTQPASVSGSPGQSITISCTGTSSDVGGYNYVSWYQQHPGKAPKLMIYDVSNRPSGVSNRFSGSKSGNTASLTISGLQAEDEADYYCSSYTSSSTRWVFGGGTKLTVL
Response line: 7.3

More entries:
Prompt line: Data request, read-out Ratio with respect to Non-Coating, for R8 (antibody, V domains shown) VH: QVQLQESGPGLVKPSETLSLTCAVSGYSISSGYYWGWIRQPPGKGLEWIGSIYHSGSTYYNPSLKSRVTISVDTSKNQFSLKLSSVTAADTAVYYCARQHSFTRYYGYYYFDYWGQGTTVTVSS VL: DIQMTQSPSSLSASVGDRVTITCRASQSISSYLNWYQQKPGKAPKLLIYAASSLQSGVPSRFSGSGSGTDFTLTISSLQPEDFATYYCLQSDSIPLTFGGGTKVEIK
Response line: 2
